- assay-protocol: Zinc precipitation of GLP-1 compounds (A280 of supernatant)
- Assay type: physicochemical
- reported-conditions: Zn/GLP-1 molar ratio 0.5, 100 μM GLP-1 compound, HEPES pH 7.4, 22° C., 18 hours
Where no end group is shown, it is not given here.
measured-property: A280
API note: the answer field is a bare number with no unit suffix.

Example entries begin here.
substance	A280
Val^8-Lys^22-GLP-1(7-37)OH (HVEGTFTSDVSSYLEKQAAKEFIAWLVKGRG)	0.0905
Val^8-Ala^22-GLP-1(7-37)OH (HVEGTFTSDVSSYLEAQAAKEFIAWLVKGRG)	0.107
Val^8-Ser^22-GLP-1(7-37)OH (HVEGTFTSDVSSYLESQAAKEFIAWLVKGRG)	0.2665
Gly^8-GLP-1(7-37)OH (HGEGTFTSDVSSYLEGQAAKEFIAWLVKGRG-OH; UniProt P01275 98-128, looked up, variant A8G) [reference compound]	0.151
Val^8-Glu^22-GLP-1(7-37)OH (HVEGTFTSDVSSYLEEQAAKEFIAWLVKGRG)	0.292
Val^8-Asp^22-GLP-1(7-37)OH (HVEGTFTSDVSSYLEDQAAKEFIAWLVKGRG)	0.2845

### Prompt Specify A280 for Val^8-Pro^22-GLP-1(7-37)OH (HVEGTFTSDVSSYLEPQAAKEFIAWLVKGRG) and stop.
### Response 0.2325

### Prompt Specify A280 for Gln^22-GLP-1(7-37)OH (HAEGTFTSDVSSYLEQQAAKEFIAWLVKGRG) and stop.
### Response 0.123

The measured values listed here are drawn from patent US20060263849A1.
